From: ChEMBL document CHEMBL3433997

system_name: Glucose transporter (Leishmania mexicana) (UniProt O61059)
protocol_details: ST_JUDE_LEISH: Cytotoxicity at 2uM final concentration against transgenic Leishmania Mexicana promastigotes LmGT2 that are glucose transport deficient and complemented with the L. Mexicana glucose transporter 2. Activity is measured by DNA content using SYBR green in vitro
Format: functional
Catalogue of inhibition readings, one per entry.

molecule: COc1ccc(Cl)cc1NC(=O)Nc1ccnc2ccccc12
inhibition / %: 6.32
--
molecule: COc1ccc(CCNC(=O)c2cc3c(=O)n4cccc(C)c4nc3n(C)c2=N)cc1
inhibition / %: 15.2
--
molecule: N=C(N)Nc1ccc(Cc2ccc(NC(=N)N)cc2)cc1
inhibition / %: 0.58
--
molecule: O=C(Nc1cccc(C(F)(F)F)c1)c1ccc(S(=O)(=O)NC2CCN(CC3CCCCC3)CC2)cc1
inhibition / %: 5.57
--
molecule: O=C(/C=C/c1ccc(Cl)c(Cl)c1)NCCCCCN1CCC(c2c[nH]c3ccc(O)cc23)CC1
inhibition / %: 1.25
--
molecule: N=C1SC(=Cc2cn[nH]c2-c2ccc(F)cc2)C(=O)N1c1nccs1
inhibition / %: 1.17
--
molecule: CCOc1ccc(C(C)NC(=O)c2cc(Cl)ccc2OC)cc1OCC (stereo unspecified)
inhibition / %: -2.78
--
molecule: O=C(Nc1cccc(CN2CCCN(Cc3ccsc3)CC2)c1)c1cc2ccccc2s1
inhibition / %: -0.93
--
molecule: CCN(CC)CCCNC(=O)/C(=C/C=C/c1cc2cc(Cl)c(Cl)cc2[nH]1)OC
inhibition / %: 7.84
--
molecule: CN(C)c1cccc2c1nc(-c1ccco1)n2CC1CCCN1 (stereo unspecified)
inhibition / %: -0.52
--
molecule: CN1CCN(CCCN(Cc2ccc(-c3ccc(CNCCc4ccccc4)cc3)cc2)C(=O)c2cccs2)CC1
inhibition / %: 3.32
--
molecule: O=C(CNC1=NCCN1)Nc1ccc(NC(=O)Nc2ccc(NC(=O)CNC3=NCCN3)cc2)cc1
inhibition / %: 0.21
--
molecule: Cc1cccc2nc(-c3cccc(-c4ccc(NC(=O)CCc5c[nH]cn5)cc4)c3)[nH]c12
inhibition / %: 8.27
--
molecule: Cc1cccc2nc(-c3cccc(-c4ccc(NC(=O)CN5CCN(C)CC5)cc4)c3)[nH]c12
inhibition / %: 0.62
--
molecule: Oc1ccc(CCCNc2nc(NCc3ccccc3-c3ccccc3)nc(N3CCNCC3)n2)cc1
inhibition / %: 1.36
--
molecule: Cc1nc(-c2cccc3c(NC(=O)Nc4ccc5nccc(N6CCN(C)CC6)c5c4)cccc23)no1
inhibition / %: 6.65
--
molecule: CCCNC[C@@H](O)[C@H](Cc1ccccc1)NC(=O)c1cc(NCC)cc(N2CCCC2=O)c1
inhibition / %: 0.72
--
molecule: COc1ccc2nccc([C@@H](O)CN3CCC(NCc4cnc5c(c4)NC(=O)CS5)CC3)c2c1
inhibition / %: 1.2
--
molecule: Cc1cccc(C)c1N1CCN(C2CCC(NC(=O)/C=C/c3ccccc3)CC2)CC1 (stereo unspecified)
inhibition / %: 1.49
--
molecule: Cc1cc(OCCCn2ccnc2)ccc1-c1csc(/N=C(\N)NCc2ccccc2)n1
inhibition / %: 6.56
--
molecule: CN(C)CCOc1ccc(NC(=O)Nc2ccnc3c(Br)cccc23)cc1Cl
inhibition / %: -0.85
--
molecule: CN1CCCC1CCNc1ncc2c(-c3ccc(NC(=O)Nc4cc(C(F)(F)F)ccc4F)cc3)nn(C)c2n1 (stereo unspecified)
inhibition / %: 3.95
--
molecule: CCCCSc1ccc2nc(-c3c[nH]c4ccc(C#N)cc34)cn2c1
inhibition / %: 3.81
--
molecule: CN1CCN(CCCN(Cc2csc(-c3ccc(CNCc4ccccc4)cc3)n2)S(=O)(=O)c2ccccc2Cl)CC1
inhibition / %: 2.9
--
molecule: CCCOc1ccc(-c2nonc2NC(=O)c2ccccc2OC)cc1OCCC
inhibition / %: 10.7
--
molecule: Cc1ccccc1C1CCN(C2CCC(NC(=O)c3ccc(-c4cc(C(F)(F)F)nn4C)s3)CC2)CC1 (stereo unspecified)
inhibition / %: 9.51
--
molecule: O=C(Nc1cc(Cl)ccc1O)c1cnn2c(C(F)(F)F)cc(-c3cccs3)nc12
inhibition / %: 3.63
--
molecule: CC(=O)N1N=C(c2[nH]c3ccc(Br)cc3c2C)OC1c1ccccc1 (stereo unspecified)
inhibition / %: 3.6
--
molecule: O=C(Nc1cccc(CN2CCCN(Cc3ccccc3)CC2)c1)c1cc2ccccc2s1
inhibition / %: -4.49
--
molecule: COc1cccc([C@@H](CC(=O)Nc2cc(C(F)(F)F)ccc2OC)Nc2ccc(C#N)c3ccccc23)c1
inhibition / %: 4.83
--
molecule: Cc1cc(NC(=O)[C@H](CC2CCCCC2)Nc2ccc(C#N)c3ccccc23)ccc1F
inhibition / %: 1.62
--
molecule: CCN1CCc2c1cc(C(=O)N[C@@H](Cc1ccccc1)[C@H](O)CNC(C)(C)c1cccc(C(F)(F)F)c1)cc2N1CCCCS1(=O)=O
inhibition / %: 2.66
--
molecule: CC(C)C(=O)n1ncc2c3c(N)nc(N)nc3ccc21
inhibition / %: -0.01
--
molecule: Cc1cc(NC(=O)c2ccsc2)ccc1OC1CCN(Cc2ccc(F)cc2)CC1
inhibition / %: 1.6
--
molecule: Nc1c2c(nc3ccc(NC(=O)CCCCCc4ccccc4)cc13)CCCC2
inhibition / %: 10
--
molecule: COc1cc2nc(Nc3ccc4c(ccn4Cc4ccccc4)c3)nc(Nc3ccc4c(ccn4Cc4ccccc4)c3)c2cc1OC
inhibition / %: 3.43
